src = patent US10259776B2

# test-system: sGC in the CHO reporter cell (Rattus norvegicus (Rat), UniProt P20595)
# Sequence (P20595 whole entry): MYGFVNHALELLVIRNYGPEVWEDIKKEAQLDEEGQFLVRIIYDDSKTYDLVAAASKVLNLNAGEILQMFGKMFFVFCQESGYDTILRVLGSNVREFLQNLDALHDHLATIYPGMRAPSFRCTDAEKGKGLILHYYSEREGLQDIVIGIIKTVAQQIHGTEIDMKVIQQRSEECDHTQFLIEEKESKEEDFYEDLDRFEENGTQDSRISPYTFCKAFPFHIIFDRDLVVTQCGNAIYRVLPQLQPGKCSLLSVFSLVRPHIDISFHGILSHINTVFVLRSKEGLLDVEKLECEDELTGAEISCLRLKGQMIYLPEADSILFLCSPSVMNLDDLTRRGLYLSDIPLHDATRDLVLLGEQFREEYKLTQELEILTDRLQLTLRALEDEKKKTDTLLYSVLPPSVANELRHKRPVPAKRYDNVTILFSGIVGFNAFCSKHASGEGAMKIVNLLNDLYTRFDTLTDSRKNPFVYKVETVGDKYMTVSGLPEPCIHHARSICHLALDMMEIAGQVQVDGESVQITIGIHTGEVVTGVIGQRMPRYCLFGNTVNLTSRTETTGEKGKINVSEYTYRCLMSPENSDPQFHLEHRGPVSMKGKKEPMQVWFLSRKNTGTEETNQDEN
# Sequence (P19686 whole entry partner): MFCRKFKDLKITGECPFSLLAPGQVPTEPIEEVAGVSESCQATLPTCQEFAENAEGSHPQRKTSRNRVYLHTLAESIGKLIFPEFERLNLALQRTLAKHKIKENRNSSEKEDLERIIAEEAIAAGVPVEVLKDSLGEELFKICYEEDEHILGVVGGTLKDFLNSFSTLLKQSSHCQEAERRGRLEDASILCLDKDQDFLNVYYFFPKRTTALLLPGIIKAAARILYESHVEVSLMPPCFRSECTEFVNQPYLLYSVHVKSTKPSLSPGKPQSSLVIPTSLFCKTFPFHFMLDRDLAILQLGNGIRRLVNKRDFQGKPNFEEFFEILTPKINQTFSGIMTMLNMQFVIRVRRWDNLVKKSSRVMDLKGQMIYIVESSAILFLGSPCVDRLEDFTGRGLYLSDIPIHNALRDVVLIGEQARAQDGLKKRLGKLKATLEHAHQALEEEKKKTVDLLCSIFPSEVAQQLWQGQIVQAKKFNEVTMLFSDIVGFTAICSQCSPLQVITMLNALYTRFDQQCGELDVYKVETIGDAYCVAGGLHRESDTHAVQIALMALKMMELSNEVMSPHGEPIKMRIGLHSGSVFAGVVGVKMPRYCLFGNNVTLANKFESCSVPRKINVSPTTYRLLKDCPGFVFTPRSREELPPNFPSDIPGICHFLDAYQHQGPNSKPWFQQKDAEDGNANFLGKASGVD
# test-description: Action at a recombinant guanylate cyclase reporter cell line
# Format: cell-based
# setup-conditions: CHO reporter cell in vitro
endpoint: MEC (minimum effective concentration), sGC-activating activity in the CHO reporter cell (nM)

Check out these entries, answers already filled in.
- molecule: "C[C@H]([C@H](C(=O)Nc1cc(C(CC(=O)O)C2CCC2)ccc1Cl)c1ccc(Cl)cc1)C(F)(F)F (single isomer, unassigned; (+)) [Example 33]"
  result-units: "nM"
  measured-number: 1
- molecule: "CC(C)C(CC(=O)O)c1ccc(Cl)c(NC(=O)[C@H](c2ccc(Cl)cc2)[C@@H](C)C(F)(F)F)c1 (single isomer, unassigned; (+)) [Example 1]"
  result-units: "nM"
  measured-number: 3
- molecule: "CC(C)C(CC(=O)O)c1ccc(Cl)c(NC(=O)C(c2ccc(CC(F)(F)F)cc2)C(C)C(F)(F)F)c1 (centres unmarked)"
  result-units: "nM"
  measured-number: 1
- molecule: "CC(C(=O)O)C(c1ccc(Cl)c(NC(=O)C(c2ccc(Cl)cc2)[C@@H](C)C(F)(F)F)c1)C1CC1 (some centres unmarked)"
  result-units: "nM"
  measured-number: 10
- molecule: "COc1cc([C@@H](C(=O)Nc2cc(C(CC(=O)O)C(C)C)ccc2Cl)[C@@H](C)C(F)(F)F)ccc1Cl (some centres unmarked)"
  result-units: "nM"
  measured-number: 3
- molecule: "Cc1ccc([C@@H](C(=O)Nc2cc(C(CC(=O)O)C(C)C)ccc2Cl)[C@@H](C)C(F)(F)F)cc1 (some centres unmarked)"
  result-units: "nM"
  measured-number: 3
- molecule: "C[C@H]([C@H](C(=O)Nc1cc(C(CC(=O)O)CC2CC2)ccc1Cl)c1ccc(Cl)cc1)C(F)(F)F (single isomer, unassigned) [Example 36]"
  result-units: "nM"
  measured-number: 3
- molecule: "CC(C)C(CC(=O)O)c1ccc(Cl)c(NC(=O)C(c2ccc(Cl)cc2)C2CCC(F)(F)C2)c1 (centres unmarked) [Example 18]"
  result-units: "nM"
  measured-number: 300

[A] CC(C)c1ccc([C@@H](C(=O)Nc2cc(C(CC(=O)O)C(C)C)ccc2Cl)[C@@H](C)C(F)(F)F)cc1 (some centres unmarked)
[B] CCc1ccc([C@@H](C(=O)Nc2cc(C(CC(=O)O)C(C)C)ccc2Cl)[C@@H](C)C(F)(F)F)cc1 (some centres unmarked)
Please indicate which entry, A or B , has the lower recorded MEC (minimum effective concentration), sGC-activating activity in the CHO reporter cell value. Returns: label corresponding to the selected item.
A
(A: 0.3 nM, B: 1 nM)

[1] CC(C)C(CC(=O)O)c1ccc(Cl)c(NC(=O)C(c2ccc(Cl)cc2)C2CCC(F)(F)C2)c1 (centres unmarked) [Example 21]
[2] C[C@H]([C@H](C(=O)Nc1cc(C(C)(CC(=O)O)C2CCC2)ccc1Cl)c1ccc(Cl)cc1)C(F)(F)F (single isomer, unassigned) [Example 5]
// which entry has the larger MEC (minimum effective concentration), sGC-activating activity in the CHO reporter cell value, 1 or 2 ? Returns: label corresponding to the selected item.
1

[I] CC(C)C(CC(=O)O)c1ccc(Cl)c(NC(=O)[C@H](c2ccc(C(C)(C)C)cc2)[C@@H](C)C(F)(F)F)c1 (some centres unmarked)
[II] C[C@H]([C@H](C(=O)Nc1cc(C(C)(CC(=O)O)C2CCC2)ccc1Cl)c1ccc(Cl)cc1)C(F)(F)F (single isomer, unassigned) [Example 6]
[III] C[C@H](C(C(=O)Nc1cc(C(CC(=O)O)C2CC2(F)F)ccc1Cl)c1ccc(Cl)cc1)C(F)(F)F (some centres unmarked) [Example 31]
[IV] CC(C)C(CC(=O)O)c1ccc(Cl)c(NC(=O)C(c2ccc(Cl)cc2)C2CCC(F)(F)C2)c1 (centres unmarked) [Example 19]
// ascending sort on recorded MEC (minimum effective concentration), sGC-activating activity in the CHO reporter cell Reply with the item labels sorted in the order that was asked for.
I, II, III, IV
(I: 0.3 nM, II: 1 nM, III: 3 nM, IV: 30 nM)
